Where do these numbers come from? They come from ChEMBL document CHEMBL4354805.

# reported half-life; entries follow
# Method Description: Half life in Wistar Han rat at 2 mg/kg, iv
# Type: ADME, organism-based
# Experimental Context: in vivo
Write down the numeric answer in h and omit the unit.

Known half-life results, listed for orientation:
{"Structure Notation": "CNC1=N[C@@H]2[C@@H](O)[C@H](O)[C@@H](C(F)F)O[C@@H]2S1", "Units Symbol": "h", "half-life": 1.48}
{"Structure Notation": "CCN(C)C1=N[C@@H]2[C@@H](O)[C@H](O)[C@@H](CO)O[C@@H]2S1", "Units Symbol": "h", "half-life": 1.89}
{"Structure Notation": "CNC1=N[C@@H]2C[C@H](O)[C@@H](C(F)F)O[C@@H]2S1", "Units Symbol": "h", "half-life": 1.66}
{"Structure Notation": "OC[C@H]1O[C@@H]2SC(N3CCC3)=N[C@@H]2[C@@H](O)[C@@H]1O", "Units Symbol": "h", "half-life": 1.63}
{"Structure Notation": "CNC1=N[C@@H]2[C@@H](O)[C@H](O)[C@@H](CF)O[C@@H]2S1", "Units Symbol": "h", "half-life": 1.71}

For this molecule ( CCCNC1=N[C@@H]2[C@@H](O)[C@H](O)[C@@H](C(F)F)O[C@@H]2S1 ), measured half-life is 3.89

For this molecule ( CCNC1=N[C@@H]2[C@@H](O)[C@H](O)[C@@H](C(F)F)O[C@@H]2S1 ), measured half-life is 1.9

For this molecule ( CN(C)C1=N[C@@H]2C[C@H](O)[C@@H](CO)O[C@@H]2S1 ), measured half-life is 1.95

* * *

# Method Description: AUCN in Wistar Han rat at 3 mg/kg, po
# Type: ADME, organism-based
# Experimental Context: in vivo
# reported AUC/dose; entries follow
Write down the numeric answer in µM·kg·h/mg and omit the unit.

{"Structure Notation": "CN(C)C1=N[C@@H]2[C@@H](O)[C@H](O)[C@@H](CF)O[C@@H]2S1", "Units Symbol": "µM·kg·h/mg", "AUC/dose": 0.954}
{"Structure Notation": "CN(C)C1=N[C@@H]2C[C@H](O)[C@@H](CO)O[C@@H]2S1", "Units Symbol": "µM·kg·h/mg", "AUC/dose": 2.26}
{"Structure Notation": "CCCNC1=N[C@@H]2[C@@H](O)[C@H](O)[C@@H](C(F)F)O[C@@H]2S1", "Units Symbol": "µM·kg·h/mg", "AUC/dose": 0.376}
{"Structure Notation": "CNC1=N[C@@H]2C[C@H](O)[C@@H](C(F)F)O[C@@H]2S1", "Units Symbol": "µM·kg·h/mg", "AUC/dose": 1.9}

Consider now this further compound.
For this compound ( CNC1=N[C@@H]2[C@H](F)[C@H](O)[C@@H](CO)O[C@@H]2S1 ), measured AUC/dose is 1.43

* * *

# reported pKi; entries follow
# Target Of Assay: Protein O-GlcNAcase (Homo sapiens, UniProt O60502)
# Sequence (O60502 whole entry): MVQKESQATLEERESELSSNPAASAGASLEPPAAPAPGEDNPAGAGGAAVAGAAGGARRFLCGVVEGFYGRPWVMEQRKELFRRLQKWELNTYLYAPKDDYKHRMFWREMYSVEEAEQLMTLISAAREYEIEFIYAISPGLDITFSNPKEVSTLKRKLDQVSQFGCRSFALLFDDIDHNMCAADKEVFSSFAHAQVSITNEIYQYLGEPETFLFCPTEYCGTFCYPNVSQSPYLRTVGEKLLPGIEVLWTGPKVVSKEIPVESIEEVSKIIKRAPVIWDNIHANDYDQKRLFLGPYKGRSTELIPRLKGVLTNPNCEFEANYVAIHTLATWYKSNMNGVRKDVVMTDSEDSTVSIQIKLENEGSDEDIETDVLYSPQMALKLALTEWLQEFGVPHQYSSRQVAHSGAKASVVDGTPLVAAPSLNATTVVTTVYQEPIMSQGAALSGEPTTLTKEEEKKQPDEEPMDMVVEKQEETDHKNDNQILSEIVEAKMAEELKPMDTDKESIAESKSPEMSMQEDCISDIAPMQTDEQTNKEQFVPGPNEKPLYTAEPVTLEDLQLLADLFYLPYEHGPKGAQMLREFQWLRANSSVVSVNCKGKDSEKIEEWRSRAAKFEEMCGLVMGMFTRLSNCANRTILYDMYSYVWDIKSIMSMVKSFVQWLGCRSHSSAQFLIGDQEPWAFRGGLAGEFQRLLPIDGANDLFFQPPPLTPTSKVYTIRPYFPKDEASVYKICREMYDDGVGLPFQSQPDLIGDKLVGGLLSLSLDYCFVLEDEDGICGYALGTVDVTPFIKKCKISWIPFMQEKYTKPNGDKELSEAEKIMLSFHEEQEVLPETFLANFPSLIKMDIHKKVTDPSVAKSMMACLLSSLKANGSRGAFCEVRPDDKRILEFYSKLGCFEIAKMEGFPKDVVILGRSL
# Method Description: Inhibition of recombinant human OGA
Interpret pKi as the negative base-10 log of the concentration measured in mol/L.

{"Structure Notation": "CCNC1=N[C@@H]2[C@@H](O)[C@H](O)[C@@H](CF)O[C@@H]2S1", "Target Of Assay": "Protein O-GlcNAcase (Homo sapiens, UniProt O60502)", "pKi": 7.70}

For this molecule ( CN(C)C1=N[C@@H]2[C@@H](O)[C@H](O)[C@@H](C(F)F)O[C@@H]2S1 ), measured pKi is 8.62

For this molecule ( NC1=N[C@@H]2[C@@H](O)[C@H](O)[C@@H](CF)O[C@@H]2S1 ), measured pKi is 5.92

For this molecule ( CCNC1=N[C@@H]2[C@@H](F)[C@H](O)[C@@H](CO)O[C@@H]2S1 ), measured pKi is 7.54

For this molecule ( CNC1=N[C@@H]2C[C@H](O)[C@@H](CO)O[C@@H]2S1 ), measured pKi is 8.03

For this molecule ( NC1=N[C@@H]2[C@@H](O)[C@H](O)[C@@H](C(F)F)O[C@@H]2S1 ), measured pKi is 6.12

For this molecule ( CCCNC1=N[C@@H]2[C@@H](O)[C@H](O)[C@@H](C(F)F)O[C@@H]2S1 ), measured pKi is 8.28
